These entries and their values trace back to patent US12692249B2.

# Tested on: MV4:11 human cancer cell lines
# Protocol Description: Cellular viability / anti-proliferative assay, CellTiter-Glo, 5 day protocol
# Type: cell-based
# Settings: Homo sapiens, MV4-11, 120 h, MV4:11 cells; 5 day incubation; CellTiter-Glo; mean of at least two replicates; read-out: GI50 on cellular proliferation of MV4:11 human cancer cell lines
Recorded GI50 for the following compounds
# value in nM; strip the unit string

>>> df
                        structure_as_smiles  obs_value
0  Cc1ccc2cncc(N3CCc4c(cc(Cc5ccncc5)cc4-c4cn(C)nc4C(F)(F)F)C3=O)c2c1       4380

Q. Return the recorded GI50 value; entry: COc1cc(C2=CCN(C)CC2)c2nc(C)cc(N3CCc4c(cc(Cn5ccnc5)cc4-c4cn(C)nc4C(F)(F)F)C3=O)c2c1
A. 33

Q. Return the recorded GI50 value; entry: Cc1cc2c(N3CCc4c(cc(Cn5ccnc5)cc4-c4cn(C)nc4C(F)(F)F)C3=O)cccc2n1C
A. 369

Q. Return the recorded GI50 value; entry: COc1cc(C)cc2c(N3CCc4c(cc(Cn5ccnc5)cc4-c4cn(C)nc4C(F)(F)F)C3=O)ccnc12
A. 26
